Origin of values: paper PMC12785511

# Experiment Description: Sirius T3 automated potentiometric titrations with n-octanol, log P / log D
# Particulars: n-octanol/water, pH 7.4
logD class ranges: low group = under 0.8, middle group = from 0.8 up to 3, high group = 3 and over

stdin: The entry to classify is CNC(=C[N+](=O)[O-])NCCSCc1ccc(CN(C)C)o1 [ranitidine] ; which class holds it?
stdout: low group

stdin: # bin label for CC(=O)Oc1ccccc1C(=O)O [acetylsalicylic acid]
stdout: low group

stdin: In plain terms, what class is CNCCC=C1c2ccccc2CCc2ccccc21 [nortriptyline] ?
stdout: middle group

stdin: Sort OCCN1CCN(CCCN2c3ccccc3Sc3ccc(C(F)(F)F)cc32)CC1 [fluphenazine] into one of the categories.
stdout: high group

stdin: Band of O=C(c1ccccc1)c1ccc2n1CCC2C(=O)O (centres unmarked) [ketorolac] ?
stdout: low group

---

# Experiment Description: Sirius T3 automated potentiometric titrations with n-octanol, log P / log D
# Particulars: n-octanol/water, pH 3
Measured Attribute: logD
One number for each entry.

stdin: Tell me its logD given CN(C)CCCN1c2ccccc2Sc2ccccc21 [promazine] as the entry.
stdout: 0.83

---

# Experiment Description: Sirius T3 automated potentiometric titrations with n-octanol, log P / log D
# Particulars: n-octanol/water
I'd appreciate it if you could supply logP values for the items below.
Answers are plain numbers.

Worked set:
>  <Compound>
CN(C)CCC=C1c2ccccc2CCc2ccccc21

>  <logP>
4.68

$$$$
>  <Compound>
O=c1n(CCCN2CCN(c3cccc(Cl)c3)CC2)nc2ccccn12

>  <logP>
2.98

$$$$

Please report logP for every entry that follows.
1. COc1ccc(C(CN(C)C)C2(O)CCCCC2)cc1 (centres unmarked)
2. Fc1ccc([C@@H]2CCNC[C@H]2COc2ccc3c(c2)OCO3)cc1
3. CNCCc1ccccn1

stdout:
1: 2.97; 2: 3.39; 3: 0.49

---

# Experiment Description: Sirius T3 automated potentiometric titrations with n-octanol, log P / log D
# Particulars: n-octanol/water
Where logP equals or exceeds 4, the correct label is True; where it does not, the label is False.

A selection of reference data follows.
>  <Molecule>
Cc1cn([C@H]2C[C@H](N=[N+]=[N-])[C@@H](CO)O2)c(=O)[nH]c1=O

>  <Qualitative Label>
False

$$$$
>  <Molecule>
O=C(O)Cc1ccccc1Nc1c(Cl)cccc1Cl

>  <Qualitative Label>
True

$$$$
>  <Molecule>
COc1ccc(CN(CCN(C)C)c2ccccn2)cc1

>  <Qualitative Label>
False

$$$$
>  <Molecule>
CN1CCN2c3ccccc3Cc3ccccc3C2C1 (stereo not shown)

>  <Qualitative Label>
False

$$$$
>  <Molecule>
O=C(CCCN1CCC(O)(c2ccc(Cl)cc2)CC1)c1ccc(F)cc1

>  <Qualitative Label>
True

$$$$
>  <Molecule>
OCCOCCN1CCN(C(c2ccccc2)c2ccc(Cl)cc2)CC1 (stereo not shown) [hydroxyzine]

>  <Qualitative Label>
False

$$$$
>  <Molecule>
O=C(CCCN1CCC(O)(c2ccc(Br)cc2)CC1)c1ccc(F)cc1

>  <Qualitative Label>
False

$$$$
>  <Molecule>
O=C(c1ccccc1)c1ccc2n1CCC2C(=O)O (stereo not shown)

>  <Qualitative Label>
False

$$$$

stdin: Confirm if logP reported for the molecule CN(C)CCCN1c2ccccc2Sc2ccc(Cl)cc21 is 4 or above.
stdout: True
